- assayed-system: Smad4 MH1 domain (Homo sapiens, UniProt Q13485 10-140)
- Sequence (Q13485 10-140): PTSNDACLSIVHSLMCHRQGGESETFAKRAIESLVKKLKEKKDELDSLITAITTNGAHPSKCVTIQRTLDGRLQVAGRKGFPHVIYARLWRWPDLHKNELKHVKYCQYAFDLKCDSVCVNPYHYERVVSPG
- procedure-summary: ITC; EMSA: 20 mM Tris pH 7.2, 80 mM NaCl, 2 mM DTT, 7.5 nM Cy5-DNA, 30 min room temperature, gel at 20 C; ITC: Tris pH 7.0, 20 C
- condition-description: protein: recombinant; tags: N-terminal His, cleaved (TEV or 3C); blunt, self-complementary
recorded-metric: pKd
Reminder that pKd means the negative base-10 logarithm of the concentration expressed in mol/L.

Query: // lookup pKd for GGCT 16mer (dsDNA) DNA 1: TGCAGGCTAGCCTGCA DNA 2: TGCAGGCTAGCCTGCA
Result: 6.60
